- Test system: PC-3 prostate
- Assay method text: NCI-60 one-dose screen, 48 h (100 = growth as untreated, 0 = no growth, -100 = all killed)
- Test conditions: 10 µM unless noted
The panel holds about 83,000 compounds, 20% with a hit somewhere; the sample as a whole holds those more often. Activity calls are given as the source filed them. Rule for the calls: active = growth percent below 10; inactive = the rest.
Reported metric: growth

1. N#Cc1ccc(N2Cc3cc(Cl)ccc3OC3=C2C(=O)N(Cc2ccccc2)C3=O)cc1 : 21.9% (inactive)
2. Oc1ccccc1-c1nc2c3ccccc3c3ccccc3c2o1 : 77.8% (inactive)
3. O=C1NC(c2ccc(F)cc2)N=C2C(c3ccccc3)=NOC12 (stereo not given) : 104% (inactive)
4. O=C(Nc1ccc2ncnc(Nc3cccc(C(F)(F)F)c3)c2c1)c1cccs1 : 20.9% (inactive)

-- ask If you can, please state the reported growth value of `O=c1nc(-c2ccccc2)c2cc(-c3ccc(N4CCCC4)nc3)ccc2[nH]1` .
-- reply 65.7% (inactive)

-- ask If you can, please state the reported growth value of `COC(=O)c1nc(-c2ccccc2)oc1S(=O)(=O)n1nc(-c2ccccc2)cc1N` .
-- reply 102% (inactive)

-- ask If you can, please state the reported growth value of `Cc1cnc(-c2ccc(-c3ccc(NC(=O)Nc4c(F)cc(F)cc4F)cc3F)c3c2C(=O)NC3)[nH]1` .
-- reply 39.7% (inactive)

-- ask If you can, please state the reported growth value of `Nc1c(C(=O)Nc2cccc3ccccc23)sc2nc3c(cc12)CCCCCC3` .
-- reply 35.1% (inactive)

-- ask If you can, please state the reported growth value of `CCOC(=O)c1c(C)nc2c(c1N)/C(=C/c1cccs1)C(=O)N2c1ccc(OC)cc1` .
-- reply 35% (inactive)

-- ask If you can, please state the reported growth value of CC(=O)OCC1SC(OC(C)=O)C(NC(=O)/C=C/CCl)C(OC(C)=O)C1OC(C)=O (stereo not given) .
-- reply 86.8% (inactive)

---

- Test system: SN12C renal
- Assay method text: NCI-60 one-dose screen, 48 h
- Test conditions: 10 µM unless noted
About 83,000 compounds went through this panel and 20% of them were active in at least one assay; those are over-represented in the sample as a whole. Activity calls are given as the source filed them. How the source made its calls: active means growth percent below 10; inactive means the rest.
Your response should consist of one outcome taken from active, inactive

Known results for molecules:
1) O=c1[nH]c(-c2cccc(F)c2)cc2cc(F)ccc12 : inactive
2) CNS(=O)(=O)c1cccc(-c2ccc3c4c(n(C)c(=O)c3c2)-c2ccccc2C4=O)c1 : inactive
3) COc1cc(/C=C/C(=O)c2cccs2)ccc1OCc1ccc(Cl)nc1 : inactive
4) CN(C)c1ccc(-c2ccc3[nH]c(=O)nc(-c4ccc(F)cc4)c3c2)cn1 : inactive

-- ask Tell me the recorded outcome of this test for `COc1cc(/C=C/C(=O)/C=C/c2cc3ccc(Cl)cc3n(Cc3ccccc3)c2=O)ccc1O` .
-- reply active

-- ask Tell me the recorded outcome of this test for C1=CC2=CC=C3C=CC=C4C(c5nc6c7ccccc7c7ccccc7c6[nH]5)=CC(=C1)C2C34 (stereo not drawn) .
-- reply inactive

-- ask Tell me the recorded outcome of this test for `C=C1C(=O)O[C@H]2[C@H]1CC/C(COC(=O)CCCCCCC(=O)OC/C1=C/CC[C@@]3(C)O[C@H]3[C@H]3OC(=O)C(=C)[C@@H]3CC1)=C\CC[C@@]1(C)O[C@@H]21` .
-- reply active

-- ask Tell me the recorded outcome of this test for `COc1ccc2nc3c(n2c1)C(=O)C(=O)c1ccccc1-3` .
-- reply active

-- ask Tell me the recorded outcome of this test for OCCNc1nc(NCCO)nc(Nc2ccc(C3=NN(c4cc(Cl)cc(Cl)c4)C(c4ccc(Cl)cc4)C3)cc2)n1 (stereo not drawn) .
-- reply inactive

-- ask Tell me the recorded outcome of this test for `CC1=C/C(=N\N=C2/C=C(C)CC(C)(C)C2)CC(C)(C)C1` .
-- reply inactive

-- ask Tell me the recorded outcome of this test for `O=C1Nc2ccc(Cl)cc2/C1=N/c1nc(-c2ccc(Cl)cc2)cs1` .
-- reply inactive

-- ask Tell me the recorded outcome of this test for `COC(=O)/C=C1\SC(=Nc2cccc(OC)c2)N(CCc2c[nH]c3ccccc23)C1=O` .
-- reply inactive

-- ask Tell me the recorded outcome of this test for `COc1cc(/C=C/C(=O)c2ccc(NC(=O)CSc3nnc(-c4cc(OC)c(OC)c(OC)c4)n3-c3ccccc3)cc2)cc(OC)c1OC` .
-- reply inactive

-- ask Tell me the recorded outcome of this test for `O=C(CCc1nnc2sc(OCc3ccccc3)nn12)c1nc2ccc([N+](=O)[O-])cc2[nH]1` .
-- reply inactive

-- ask Tell me the recorded outcome of this test for N#CC1C(c2ccc(Cl)cc2)=Nc2c(c(-c3ccccc3)nn2-c2ccccc2)C12C(=O)Nc1ccc(Cl)cc12 (stereo not drawn) .
-- reply inactive

-- ask Tell me the recorded outcome of this test for `COc1cccc(NC(=O)Nc2ccc(Oc3ncnc4[nH]c(C)c(C)c34)cc2)c1` .
-- reply inactive

-- ask Tell me the recorded outcome of this test for COc1ccc(-c2nc(C#N)c(NCC(c3ccc(Cl)cc3)N3CCCCC3)o2)cc1 (stereo not drawn) .
-- reply inactive

-- ask Tell me the recorded outcome of this test for COc1cc(C2=NN(C=O)C(c3cccc(Nc4ccnc5cc(C(F)(F)F)ccc45)c3)C2)cc(OC)c1OC (stereo not drawn) .
-- reply inactive

---

- Tested on: HCT-15 colon
- Assay method text: NCI-60 one-dose screen, 48 h (100 = growth as untreated, 0 = no growth, -100 = all killed)
- Test conditions: 10 µM unless noted
The panel holds about 83,000 compounds, 20% with a hit somewhere; the sample as a whole holds those more often.
Reported metric: growth (%)
Your answer is read as %, so omit the unit and give the number.

As a guide, the following entries are already answered.
1) COc1ccc2nc3c(n2c1)C(=O)C(=O)c1ccccc1-3 : -60.2
2) CN(C)[C@@H]1C(=O)C(C(N)=O)=C(O)[C@@]2(O)C(=O)C3=C(O)c4c(O)cc(CN5CCc6ccccc6C5)c(Cl)c4C[C@H]3C[C@@H]12 : -75.1
3) c1ccc(-c2n(Cc3ccc4ccccc4n3)cc[n+]2Cc2ccc3ccccc3c2)cc1 : 70.5
4) O=C1NC(c2ccc(F)cc2)N=C2C(c3ccccc3)=NOC12 (centres undefined) : 103
5) CC1=C(CCCOC(=O)NCCCl)C2=C(C)C3(CC3)[C@@](C)(O)C(=O)C2=C1 : 24.9
6) CCOC(=O)/C=C1\SC(=Nc2ccc(C#N)cc2)N(CCN2C(=O)/C(=C/C(=O)OCC)SC2=Nc2ccc(C#N)cc2)C1=O : 2.58
7) O=C(/C(=C/c1ccc([N+](=O)[O-])cc1)SCc1ccccc1)c1ccc(Cl)cc1 : 34.3
8) CC(=O)c1cnc(-c2ccccc2)nc1CBr : 63.5
9) COc1ccc2c(c1)Oc1nc(N)c(C#N)c(N)c1C2Sc1ccc(SC)cc1 (centres undefined) : -10.9
10) S=C(Nc1ccc(Cl)cc1)c1ccccn1 : 98.1

-- ask If you can, please state the reported growth value of `O=C1C(Cl)=C(NCCCN(CCCNC2=C(Cl)C(=O)c3ccccc3C2=O)C2=C(Cl)C(=O)c3ccccc3C2=O)C(=O)c2ccccc21` .
-- reply 37.1

-- ask If you can, please state the reported growth value of CCCS(=O)(=O)Nc1ccc(F)c(C(=O)c2c[nH]c3ncc(-c4ccc(OCCCC5CCCCN5)nc4)cc23)c1F (centres undefined) .
-- reply 102

-- ask If you can, please state the reported growth value of `C=C1C(=O)O[C@H]2[C@H]1CC/C(C=Nc1c(N)cc(C(F)(F)F)cc1Br)=C\CC[C@@]1(C)O[C@@H]21` .
-- reply -55.1

-- ask If you can, please state the reported growth value of `O=C(CCCC(=O)Nc1ccc(-n2nnc3cc(Cl)c(Cl)cc32)cc1)Nc1ccc(-n2nnc3cc(Cl)c(Cl)cc32)cc1` .
-- reply 74.1

-- ask If you can, please state the reported growth value of `NCCCn1c2c(c3cc(-c4ccn[nH]4)ccc3c1=O)C(=O)c1ccccc1-2` .
-- reply 31.2

-- ask If you can, please state the reported growth value of COc1ccc(-c2nc(C#N)c(NCC(c3ccco3)N3CCCC3)o2)cc1 (centres undefined) .
-- reply 30.9

-- ask If you can, please state the reported growth value of `O=C1C(Cl)=C(Nc2ccc3c(c2NC2=C(Cl)C(=O)c4ccccc4C2=O)C(=O)c2ccccc2C3=O)C(=O)c2ccccc21` .
-- reply 15.6

-- ask If you can, please state the reported growth value of `C=C1C(=O)O[C@H]2[C@H]1CC/C(COC(=O)c1c[nH]c3ccccc13)=C\CC[C@@]1(C)O[C@@H]21` .
-- reply -69.5

-- ask If you can, please state the reported growth value of `O=C(CCl)N1CCCc2ccccc21` .
-- reply 99.8

---

Measured growth, listed per entry.
- System: MALME-3M melanoma
- Assay method text: NCI-60 one-dose screen, 48 h (100 = growth as untreated, 0 = no growth, -100 = all killed)
- Test conditions: 10 µM unless noted
Compounds without any hit were thinned out: in the full panel of roughly 83,000, 20% have a hit.
Your answer is read as %, so omit the unit and give the number.

1) O=C1Nc2ccccc2C12C=C(c1ccccc1)Nc1c2c(-c2ccccc2)nn1-c1ccccc1 (stereo not given) : 98.5
2) CCOC(=O)C1=C(C)n2nc(CC#N)c(C#N)c2NC1c1ccc(Cl)cc1 (stereo not given) : 87.4

-- ask If you can, please state the reported growth value of `CCc1ccc(OCc2ccccc2C(=O)Nc2ccc3nc(C)cc(N)c3c2)cc1` .
-- reply -86.4

-- ask If you can, please state the reported growth value of `O=C(Nc1nc(-c2ccccc2Cl)cs1)c1cc(-c2ccc(Br)cc2)nc2ccccc12` .
-- reply 75.1

-- ask If you can, please state the reported growth value of `O=c1[nH]nc(-c2ccccc2)c2sc(NC(=S)Nc3ccc(Cl)cc3)nc12` .
-- reply 105
